Tgt: T1, human CCR8 (human, UniProt P51685 1-355)
T1 construct: Native CCR8 on human PBMC (CCR8+ CD3+ or CCR8+ CD4+ lymphocytes); also called chemokine (C-C motif) receptor 8
Assay Info: flow blocking, PBMC CCR8+CD4+; competitor PE-AB5
Measure Name: % Blocking (%)
Give bare numbers, in %.

In the examples that follow, each entry is paired with its recorded % Blocking.
AB4 (antibody, V domains shown, Hybridoma monoclonal; also called antibody 4; clone 4) VH: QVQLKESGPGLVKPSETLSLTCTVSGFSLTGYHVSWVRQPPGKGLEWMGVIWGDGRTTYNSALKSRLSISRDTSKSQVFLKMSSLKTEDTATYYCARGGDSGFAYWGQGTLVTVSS VL: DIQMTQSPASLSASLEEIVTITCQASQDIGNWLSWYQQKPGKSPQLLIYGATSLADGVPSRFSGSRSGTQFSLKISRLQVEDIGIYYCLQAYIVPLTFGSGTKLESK: 87.1
AB14 (antibody, V domains shown, Hybridoma monoclonal; Same VH/VL entries as AB15; also called antibody 14; clone 14) VH: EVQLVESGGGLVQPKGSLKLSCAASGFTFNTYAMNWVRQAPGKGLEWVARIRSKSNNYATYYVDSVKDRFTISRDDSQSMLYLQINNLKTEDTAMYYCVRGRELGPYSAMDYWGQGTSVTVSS VL: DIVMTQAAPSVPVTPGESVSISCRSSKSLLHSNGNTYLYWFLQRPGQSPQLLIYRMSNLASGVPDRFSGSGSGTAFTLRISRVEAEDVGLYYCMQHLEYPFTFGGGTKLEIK: 6.93
AB10 (antibody, V domains shown, Hybridoma monoclonal; also called antibody 10; clone 10) VH: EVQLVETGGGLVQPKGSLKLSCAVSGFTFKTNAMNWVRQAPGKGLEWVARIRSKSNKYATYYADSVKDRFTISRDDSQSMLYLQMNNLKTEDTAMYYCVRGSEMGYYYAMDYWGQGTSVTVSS VL: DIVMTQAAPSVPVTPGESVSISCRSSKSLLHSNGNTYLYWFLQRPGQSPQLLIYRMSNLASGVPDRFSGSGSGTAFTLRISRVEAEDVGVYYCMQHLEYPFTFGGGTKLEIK: -17.8
AB8 (antibody, V domains shown, Hybridoma monoclonal; also called antibody 8; clone 8) VH: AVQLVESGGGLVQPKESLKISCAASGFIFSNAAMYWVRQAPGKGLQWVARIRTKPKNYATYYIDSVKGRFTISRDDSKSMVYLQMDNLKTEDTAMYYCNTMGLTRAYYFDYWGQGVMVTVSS VL: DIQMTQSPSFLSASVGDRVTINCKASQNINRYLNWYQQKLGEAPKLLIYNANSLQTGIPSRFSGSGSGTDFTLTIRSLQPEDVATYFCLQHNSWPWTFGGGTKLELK: -8.42
AB15 (antibody, V domains shown, Hybridoma monoclonal; Same VH/VL entries as AB14; also called antibody 15; clone 15) VH: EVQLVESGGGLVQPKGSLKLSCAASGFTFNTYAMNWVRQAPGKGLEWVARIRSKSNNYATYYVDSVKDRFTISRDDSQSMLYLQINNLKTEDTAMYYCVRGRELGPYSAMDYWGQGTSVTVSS VL: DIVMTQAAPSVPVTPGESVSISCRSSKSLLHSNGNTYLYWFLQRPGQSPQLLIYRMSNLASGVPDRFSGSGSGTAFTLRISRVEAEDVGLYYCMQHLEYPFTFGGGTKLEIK: -17.8
AB12 (antibody, V domains shown, Hybridoma monoclonal; also called antibody 12; clone 12) VH: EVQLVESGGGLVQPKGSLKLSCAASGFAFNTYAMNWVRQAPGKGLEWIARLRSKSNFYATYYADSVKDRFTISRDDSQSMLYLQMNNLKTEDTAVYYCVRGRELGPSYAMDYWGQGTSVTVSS VL: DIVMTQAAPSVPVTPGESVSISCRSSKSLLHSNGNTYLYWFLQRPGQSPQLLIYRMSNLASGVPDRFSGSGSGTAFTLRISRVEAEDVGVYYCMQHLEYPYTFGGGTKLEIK: -2.48

Hey, quick one: what's % Blocking for each of these?
1. AB11 (antibody, V domains shown, Hybridoma monoclonal; also called antibody 11; clone 11) VH: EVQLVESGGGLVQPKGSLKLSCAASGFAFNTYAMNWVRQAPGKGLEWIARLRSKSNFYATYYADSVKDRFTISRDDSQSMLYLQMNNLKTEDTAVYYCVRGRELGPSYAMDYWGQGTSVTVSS VL: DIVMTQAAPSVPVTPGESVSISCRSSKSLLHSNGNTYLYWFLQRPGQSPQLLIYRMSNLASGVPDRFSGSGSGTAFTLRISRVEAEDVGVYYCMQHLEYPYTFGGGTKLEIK
2. AB5 (antibody, V domains shown, Hybridoma monoclonal; Same VH/VL entries as AB6; also called antibody 5; clone 5) VH: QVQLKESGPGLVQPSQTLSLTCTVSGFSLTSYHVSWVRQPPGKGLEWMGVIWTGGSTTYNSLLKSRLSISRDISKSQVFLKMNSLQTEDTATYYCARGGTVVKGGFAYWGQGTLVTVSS VL: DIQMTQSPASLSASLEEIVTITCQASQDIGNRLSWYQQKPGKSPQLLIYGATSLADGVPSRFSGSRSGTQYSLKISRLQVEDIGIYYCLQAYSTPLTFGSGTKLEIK

-27.7
91.1

// % Blocking lookup, key: AB3 (antibody, V domains shown, Hybridoma monoclonal; also called antibody 3; clone 3) VH: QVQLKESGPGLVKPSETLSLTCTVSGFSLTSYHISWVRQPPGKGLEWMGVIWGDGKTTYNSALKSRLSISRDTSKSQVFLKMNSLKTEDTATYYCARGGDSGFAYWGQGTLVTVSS VL: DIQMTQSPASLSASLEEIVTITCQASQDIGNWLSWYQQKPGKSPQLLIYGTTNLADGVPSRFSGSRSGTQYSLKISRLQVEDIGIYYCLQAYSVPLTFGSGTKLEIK 85.2
